We begin with a simple list: items and their reported 90 nM hFGFR3b.mmH Bind (RU).
- measured target: T1, human FGFR3b expressed with a C-terminal myc-myc-hexahistidine tag (hFGFR3b.mmH) (human)
- T1 construct: also called REGN3152; monomeric human FGFR3b
- T1 chain: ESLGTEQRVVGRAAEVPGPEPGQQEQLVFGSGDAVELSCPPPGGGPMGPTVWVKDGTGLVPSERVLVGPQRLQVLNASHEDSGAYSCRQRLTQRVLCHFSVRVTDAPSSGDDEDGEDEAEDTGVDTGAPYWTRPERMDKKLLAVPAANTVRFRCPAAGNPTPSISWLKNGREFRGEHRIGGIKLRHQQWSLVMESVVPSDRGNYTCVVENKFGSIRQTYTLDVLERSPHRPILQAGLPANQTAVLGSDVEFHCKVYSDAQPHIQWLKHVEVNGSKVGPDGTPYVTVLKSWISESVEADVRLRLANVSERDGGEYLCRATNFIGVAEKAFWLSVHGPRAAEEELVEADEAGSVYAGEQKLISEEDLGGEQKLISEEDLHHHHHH
- assay name: SPR Biacore, mAb captured on anti-hFc, 25C
measured endpoint: 90 nM hFGFR3b.mmH Bind (RU)

>>> reported("H4H30061P (antibody, human IgG4 S228P, kappa, V domains shown) VH: EVQLVESGGGLAQPGGSLKLSCEASGFTFSDSAMHWVRQASGKGLEWVGRIRSKANSYATGYAASVKGRFTISRDDSKNMAFLEMNSLKTEDTAVYYCLRQTYGDPWGQGTLVTVSS VL: DVVMTQSPLSLSVTLGQPASISCRSSLSLVYSDGNNYLNWFQQRPGQSPRRLLYKVFNRDSGVPDRFSGSGSGTDFTLKISRVEAEDVGVYYCMQGTHWPWTFGQGTKVEIKR")
249
>>> reported("H4H30045P (antibody, human IgG4 S228P, kappa, V domains shown, HCVR 179, LCVR 187) VH: QVQLVQSGAEVKKPGASVKVSCKTSGYRFVNYGFSWVRQAPGQGLEWMGWISPYNGNTNYIQNLQDRITMTTDTSTNTAYMELTNLRSDDTAVYYCATLTGVHFDYWGQGTLVTVSS VL: AIQMTQSPSSLSASVGDRVTITCRASQGIRNDLGWYQQKPGKAPNLLIFETSRLQSGVPSRFSGSGSGTDFTLTINSLQPEDFATYYCLQDYNYPWTFGQGTKVEIKR")
124
>>> reported("H4H30063P (antibody, human IgG4 S228P, kappa, V domains shown, HCVR 2, LCVR 10; also called REGN15684) VH: QVQLQESGPGLVKPSETLSLTCTVSGDSINSYFWSWIRQLPGKELEWIGHIYSSGSTRYNPSLQSRVTISIDTSKNQFSLKLSSVTAADTAVYYCARGASAVDYWGQGTLVTVSS VL: EIVLTQSPGTLSLSPGERATLSCRTSQSISSGYLAWYQQKPGQAPRLLIYGASRRATGIPDRFSGSGSGTDFTLTISRLEPEDFVVYYCQQYGSSPYTFGQGTKLEIKR")
240
